SYSTEM UNDER TEST: Gamma-aminobutyric acid receptor subunit alpha-5 (Homo sapiens)
Sequence (P31644 whole entry): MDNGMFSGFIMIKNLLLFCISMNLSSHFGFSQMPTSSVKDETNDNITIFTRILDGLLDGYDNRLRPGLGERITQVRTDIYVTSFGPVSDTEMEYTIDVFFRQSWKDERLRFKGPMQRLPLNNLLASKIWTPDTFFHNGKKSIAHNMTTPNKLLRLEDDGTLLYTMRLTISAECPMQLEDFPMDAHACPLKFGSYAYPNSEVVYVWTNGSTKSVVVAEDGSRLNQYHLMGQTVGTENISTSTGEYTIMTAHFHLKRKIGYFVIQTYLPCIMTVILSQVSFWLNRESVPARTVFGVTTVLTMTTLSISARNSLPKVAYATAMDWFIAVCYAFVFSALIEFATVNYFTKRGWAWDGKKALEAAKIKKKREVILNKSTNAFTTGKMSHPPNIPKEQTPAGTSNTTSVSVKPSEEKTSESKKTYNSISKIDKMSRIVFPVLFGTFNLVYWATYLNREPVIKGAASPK
PROTOCOL TEXT: Radioligand Binding Assay: Radioligand binding assays were carried out in a volume of […] (96-well plates) which contained […] of cell memebranes, [3H]flumazenil at a concentration of 1 nM for α1, α2, α3 subunits and 0.5 nM for α5 subunits and the test compound in the range of 10-10−3x10−6 M. Nonspecific binding was defined by 10−5 M diazepam and typically represented less than 5% of the total binding. Assays were incubated to equilibrium for 1 hour at 4 C. and harvested onto GF/C uni-filters (Packard) by filtration using a Packard harvester and washing with ice-cold wash buffer (50 mM Tris; pH 7.5). After drying, filter-retained radioactivity was detected by liquid scintillation counting.
pKi: −log10 of the molar value.
If the reported pKi equals or exceeds 8, assign True. If not, assign False.

Answered examples (3):
Check the entry Cc1onc(-c2ccccc2)c1COc1ccc(C(=O)N2CCn3cnnc3C2)cn1 : does pKi equal or exceed 8? False

Check the entry Cc1onc(-c2ccc(Cl)cn2)c1COc1ccc(C(=O)N2CCSCC2)cn1 : does pKi equal or exceed 8? True

Check the entry Cc1onc(-c2ccc(Cl)cc2)c1COc1ccc(C(=O)N2CCOCC2)cn1 : does pKi equal or exceed 8? True

***
Check the entry Cc1onc(-c2ccccc2)c1COc1ccc(C(=O)NC(C)C)cn1 : does pKi equal or exceed 8? True

Every entry's value here was drawn from ChEMBL document CHEMBL3638723.
